- measurement.setup: in toluene, 300.65 K
measurement.name: solubility (mole fraction)
Output spec: single numeric token, no unit.

Task item: Write down solubility (mole fraction) measured for item Cn1cnc([N+](=O)[O-])c1Cl
Reply: 0.00358

###

- measurement.setup: in ethyl acetate, 308.15 K
measurement.name: solubility (mole fraction)
Output spec: single numeric token, no unit.

Task item: Write down solubility (mole fraction) measured for item Cn1cnc([N+](=O)[O-])c1Cl
Reply: 0.0191

###

- measurement.setup: in NMP, 288.15 K
measurement.name: solubility (mole fraction)
Output spec: single numeric token, no unit.

Task item: Write down solubility (mole fraction) measured for item Cn1cnc([N+](=O)[O-])c1Cl
Reply: 0.168
